Target: UniProtKB P56817
Ki listing for selected molecules.

Param item: CC(NC(=O)C1CNCCC1c1ccc(-c2ccccc2)cc1)c1cccc2ccccc12 (centres unmarked) [Compound 407] ; param system: UniProtKB P56817; output Ki: 3 to 30 µM

Param item: Cc1cc(Cl)ccc1OCCCC(=O)N1CCNCC1C(=O)Nc1ccc2ccccc2c1 (centres unmarked) [Compound 200] ; param system: UniProtKB P56817; output Ki: > 30 µM

Param item: O=C(Nc1cccc2ccccc12)c1ccc(COc2ccccc2C(F)(F)F)cc1C1=CCNCC1 [Compound 322] ; param system: UniProtKB P56817; output Ki: 3 to 30 µM

Param item: O=C(OCc1ccc(COc2ccccc2C(F)(F)F)cc1C1=CCNCC1)c1cccc2ccccc12 [Compound 312] ; param system: UniProtKB P56817; output Ki: < 3 µM

Param item: FC(F)(F)c1ccccc1OCc1cc(-c2ccccc2C(F)(F)F)ccc1C1=CCNCC1 [Compound 375] ; param system: UniProtKB P56817; output Ki: < 3 µM

Param item: O=C(Nc1ccc(-c2ccc(Cl)c(Cl)c2)nc1N1CCNCC1)c1cccc2ccccc12 [Compound 227] ; param system: UniProtKB P56817; output Ki: < 3 µM

Param item: Cc1c(COc2ccc3c(c2)c2c(n3Cc3cccc4ccccc34)CNCC2)cccc1C(F)(F)F [Compound 521] ; param system: UniProtKB P56817; output Ki: < 3 µM

Param item: O=C(NCC1CNCCC1c1ccc(COc2ccccc2C(F)(F)F)cc1)Oc1cccc2ccccc12 (centres unmarked) [Compound 229] ; param system: UniProtKB P56817; output Ki: < 3 µM

Param item: FC(F)(F)c1ccccc1COc1ccc2c(c1)c1c(n2Cc2cccc3ccccc23)CNCC1 [Compound 505] ; param system: UniProtKB P56817; output Ki: < 3 µM

Param item: O=C(Nc1cc(C(F)(F)F)c(-c2ccc(C(F)(F)F)cc2)cc1N1CCNCC1)c1cccc2ccccc12 [Compound 170] ; param system: UniProtKB P56817; output Ki: < 3 µM

Param item: O=C(Nc1cc(Br)ccc1N1CCNCC1)c1cccc2ccccc12 [Compound 118] ; param system: UniProtKB P56817; output Ki: > 30 µM

Param item: O=C(Nc1cc(F)c(-c2ccc(Cl)c(Cl)c2)cc1N1CCNCC1)c1cccc2ccccc12 [Compound 175] ; param system: UniProtKB P56817; output Ki: < 3 µM

Param item: FC(F)(F)c1ccccc1COc1ccc2c(c1)c1c(n2Cc2ccc3ccccc3c2)CNCC1 [Compound 535] ; param system: UniProtKB P56817; output Ki: < 3 µM

Param item: O=C(c1cccc2ccccc12)n1c2c(c3cc(OCc4ccccc4I)ccc31)CCNC2 [Compound 528] ; param system: UniProtKB P56817; output Ki: < 3 µM

Param item: O=C(Nc1cc(-c2ccccc2Cl)ccc1N1CCNCC1)c1cccc2ccccc12 [Compound 122] ; param system: UniProtKB P56817; output Ki: 3 to 30 µM

Param item: FC(F)(F)c1ccc(OCc2ccc(COc3ccccc3C(F)(F)F)cc2C2=CCNCC2)cc1 [Compound 323] ; param system: UniProtKB P56817; output Ki: < 3 µM

Param item: N#Cc1ccccc1-c1ccc(COc2ccc3c(c2)c2c(n3C(=O)c3cccc4ccccc34)CNCC2)cc1 [Compound 532] ; param system: UniProtKB P56817; output Ki: < 3 µM

Param item: FC(F)(F)c1ccccc1OCc1ccc(COc2cccc3ncccc23)c(C2=CCNCC2)c1 [Compound 327] ; param system: UniProtKB P56817; output Ki: < 3 µM

Param item: Cc1cc(N2CCNCC2)c(NC(=O)c2cccc3ccccc23)cc1-c1ccc(Cl)c(Cl)c1 [Compound 138] ; param system: UniProtKB P56817; output Ki: < 3 µM

Param item: Cc1ccc(-c2ccc(N3CCNCC3)c(NC(=O)c3cccc4ccccc34)c2)cc1 [Compound 124] ; param system: UniProtKB P56817; output Ki: 3 to 30 µM

Param item: COC(=O)c1cc(C2=CCNCC2)c(COc2ccccc2C(F)(F)F)cc1-c1ccoc1 [Compound 383] ; param system: UniProtKB P56817; output Ki: 3 to 30 µM

Param item: O=S(=O)(Nc1cc(-c2ccc(Cl)c(Cl)c2)ccc1N1CCNCC1)c1ccc(-c2cccc(Cl)c2)cc1 [Compound 180] ; param system: UniProtKB P56817; output Ki: 3 to 30 µM

Param item: O=C(Nc1cc(C(F)(F)F)ccc1N1CCNCC1)c1ccc2cnccc2n1 [Compound 190] ; param system: UniProtKB P56817; output Ki: 3 to 30 µM

###

Ki listing for selected molecules.
Target: BACE (Homo sapiens, UniProt P56817)
Sequence (P56817 46-501): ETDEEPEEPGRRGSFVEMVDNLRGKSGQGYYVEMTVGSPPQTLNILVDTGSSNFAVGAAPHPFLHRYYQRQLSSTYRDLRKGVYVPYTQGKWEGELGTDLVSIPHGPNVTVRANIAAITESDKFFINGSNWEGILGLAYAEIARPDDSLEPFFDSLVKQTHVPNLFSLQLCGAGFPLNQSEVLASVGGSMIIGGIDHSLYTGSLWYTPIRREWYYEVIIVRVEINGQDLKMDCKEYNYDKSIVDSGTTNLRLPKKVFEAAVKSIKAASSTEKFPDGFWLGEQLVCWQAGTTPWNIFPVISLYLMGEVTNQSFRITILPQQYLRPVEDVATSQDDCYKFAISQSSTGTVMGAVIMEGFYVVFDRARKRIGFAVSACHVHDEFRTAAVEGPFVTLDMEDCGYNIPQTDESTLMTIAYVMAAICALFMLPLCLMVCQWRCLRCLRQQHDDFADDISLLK
Experiment: Ki Determination for the Inhibition of BACE (FS-1 peptide fluorescence cleavage assay)
Type: biochemical
Conditions: apparent Ki; 50 nM BACE, 10 μM FS-1 substrate, 0.1M sodium acetate pH 4.5
Description: Compounds were tested against BACE activity using the following modifications of the method described in J. Ermolieff et al. (2000) Biochemistry 39(51):16263. […] Two microliters of the test compound dissolved in DMSO are added to each well in a 96-well microtiter plate. […] The cleavage reaction of substrate to product is measured using a Molecular Devices fluorescence plate reader with the excitation and emission filter pairs of 355 nm and 495 nm, respectively. […]

>  <CHEMICAL SMILES>
Oc1ccccc1-c1ccc(C2=CCNCC2)c(COc2ccccc2C(F)(F)F)c1

>  <Ki>
3 to 30 µM

$$$$

The molecule O=C(Nc1cc(-c2ccc(Cl)cc2)ccc1N1CCNCC1)c1cccc2ccccc12 showed Ki equal to 3 to 30 µM

The molecule NC(=O)c1cccc(-c2cc(COc3ccccc3C(F)(F)F)c(C3=CCNCC3)cc2COc2ccccc2C(F)(F)F)c1 showed Ki equal to < 3 µM

The molecule O=C(OCc1ccccc1-c1cc(COc2ccccc2C(F)(F)F)c(C2=CCNCC2)cc1COc1ccccc1C(F)(F)F)c1ccco1 showed Ki equal to < 3 µM

The molecule FC(F)(F)c1ccccc1OCc1cc(-c2ccccc2Cl)ccc1C1=CCNCC1 showed Ki equal to < 3 µM

The molecule FC(F)(F)c1ccccc1OCc1cc(-c2ccoc2)ccc1C1=CCNCC1 showed Ki equal to 3 to 30 µM

###

Molecular target: BACE (Homo sapiens)
Test: Ki Determination for the Inhibition of BACE (FS-1 peptide fluorescence cleavage assay)
Format: biochemical
Details: apparent Ki; 50 nM BACE, 10 μM FS-1 substrate, 0.1M sodium acetate pH 4.5
Ki listing for selected compounds.

>  <COMPOUND>
FC(F)(F)c1ccccc1OCc1ccc(COc2ccc(-c3ccccc3)cc2)c(C2=CCNCC2)c1 [Compound 325]

>  <Ki>
< 3 µM

$$$$
>  <COMPOUND>
FC(F)(F)c1ccccc1OCc1cc(-c2cccs2)c(COc2ccccc2C(F)(F)F)cc1C1=CCNCC1 [Compound 345]

>  <Ki>
< 3 µM

$$$$
>  <COMPOUND>
Nc1ccc(-c2cc(COc3ccccc3C(F)(F)F)c(C3=CCNCC3)cc2COc2ccccc2C(F)(F)F)cc1 [Compound 359]

>  <Ki>
< 3 µM

$$$$
>  <COMPOUND>
COc1ccc2c(C(=O)Nc3cc(C(F)(F)F)ccc3N3CCNCC3)cccc2c1 [Compound 143]

>  <Ki>
> 30 µM

$$$$

The compound O=S(=O)(Nc1cc(C(F)(F)F)ccc1N1CCNCC1)c1ccc(-c2ccccc2)cc1 [Compound 137] showed Ki equal to 3 to 30 µM

The compound COc1cc(COc2ccc3c(c2)c2c(n3C(=O)c3cccc4ccccc34)CNCC2)cc(OC)c1 [Compound 526] showed Ki equal to < 3 µM

The compound O=C(Nc1cc(-c2ccc(C(F)(F)F)cc2)ccc1N1CCNCC1)c1cccc2ccccc12 [Compound 129] showed Ki equal to < 3 µM

The compound O=C(OCc1cc(C2=CCNCC2)c(COc2ccccc2C(F)(F)F)cc1-c1ccoc1)c1ccncc1 [Compound 390] showed Ki equal to < 3 µM

The compound O=c1cc(-c2ccccc2)nc(C2CCNCC2)n1Cc1ccc2ccccc2c1 [Compound 218] showed Ki equal to 3 to 30 µM
